The entries below come with measured binding response (RU) values attached.
TESTED_ON: T1, tau oligomers (SynAging) (UniProt P10636-8 1-441, limits assumed)
T1 construct: also called misfolded oligomeric tau polypeptide
EXPERIMENT_SUMMARY: SPR, hybridoma supernatant over immobilized tau oligomers
The reply should contain only the number, in RU.

Below, each entry is followed by its recorded binding response (RU) result.
Ab12 (clone 10B10) (antibody, V domains shown, tested as hybridoma supernatant; kappa light chain; also called 10B10.1) VH: QIQLVQSGPELKKPGETVKISCKASGYTFTNFGMNWVKQAPGKGLKWMGWINTFTGEPTYVDDFKGRFAFSLETSATTAYLQINNLKNEDTATYFCARSPGRVYTLDYWGQGTSVTVSS VL: DIVMSQSPSSLAVSAGEKVTMSCKSSQSLLNSRTRKNYLAWYQQKPGQSPKLLIYWASTRESGVPDRFTGSGSGTDFTLTISSVQAEDLAVYYCKQSYNLYTFGGGTKLEIK = 14.5
Ab3 (clone 2C7) (antibody, V domains shown, tested as hybridoma supernatant; kappa light chain) VH: QVTLKESGPGILKPSQTLSLTCSFSGFSLSTSGMGVGWIRQPSGKGLEWLAHIWWDDDKYYNPSLKNRLTISKDTSRNQVFLKITSVDTADTATYYCVRSIYYYDSSPYYYVMDYWGQGTSVTVSS VL: DIVMTQSHKFMSTSVGDRVSITCKASQDVSIAVAWYQQKPGQSPKLLIYSASYRNTGVPDRFTGSGSGTDFTFTISSVQAEDLAVYYCQQHYSSPLTFGAGTKLELK = 269

In the following, a different binder is considered.
Query: Give the reported binding response (RU) for this binder. Ab21 (clone 2C6) (antibody, V domains shown, tested as hybridoma supernatant; kappa light chain; also called 2C6.1) VH: EVQLQQSGAELVKPGASVKLSCTASGFNIKDTHMHWVKQRPEQGLEWIGKIDPSNGNTQYDPKFQGKATITADTSSNTAYLQLSSLTSEDTAVYYCATGFAYWGQGTLVTVSA VL: DIQMTQSPASLSASVGETVTITCRASGNIHNYLAWYQQKQGKSPQLLVYNAKTLADGVPSRFSGSGSGTQYSLKINSLQPEDFGSYYCQHFWYTPWTFGGGTKLEIK
Result: 6.6
